Measured remaining at 7 min, 2 µM of individual entries
Assay: Metabolic stability in human liver microsomes
Settings: both, human, liver microsomes (pooled), pH 7.4, % Remaining, Mean of 2, human liver microsomes with NADPH, 7 min
measurement kind: remaining at 7 min, 2 µM (%)

>>> print(df.to_string())
                                item_smiles  recorded_result
0  Cc1ccc(NC(=O)C23CCC(CN4CCN(C)CC4)(CC2)OC3)cc1Nc1nccc(-c2cccnc2)n1              101
1  Cc1ccc(NC(=O)C23CCC(CN4CCN(C)CC4)(CC2)CC3)cc1Nc1nccc(-c2cccnc2)n1              100
